Below, each entry is listed with its recorded melting point.

[
  {
    "chemical string": "CN(Cc1ccc(N/C(=C2\\C(=O)Nc3ccc([N+](=O)[O-])cc32)c2ccccc2)cc1)C1CCCCC1",
    "value kind": "melting point",
    "result": "215 °C"
  }
]

Which melting point value belongs to `CNC(=O)CN(c1cccc(N/C(=C2\C(=O)Nc3ccccc32)c2ccc(CNC(C)=O)cc2)c1)S(C)(=O)=O` ?
242 °C

So what does the record say about melting point for `CCOC(=O)CNC(=O)c1ccc(N/C(=C2\C(=O)Nc3ccccc32)c2ccccc2)cc1` ?
235 to 237 °C

Would you mind telling me what melting point value was observed for `CC(C)(C)OC(=O)NCCc1ccc(N/C(=C2\C(=O)Nc3ccc([N+](=O)[O-])cc32)c2ccc(CN)cc2)cc1` ?
215 to 217 °C (dec.)

I would be grateful if you could share the reported melting point for `O=C1Nc2ccc([N+](=O)[O-])cc2/C1=C(/Nc1ccc(CN2CC[S+]([O-])CC2)cc1)c1ccccc1` .
289 to 290 °C

// returns reported melting point for input `O=C1Nc2ccc([N+](=O)[O-])cc2/C1=C(/Nc1ccc(CNCCO)cc1)c1ccccc1`
196 to 198 °C

Which melting point is listed for `CC(=O)NCc1ccc(/C(Nc2ccc(N(C)C(=O)CN(C)C)cc2)=C2/C(=O)Nc3ccccc32)cc1` ?
123 to 125 °C

###

Listing of recorded melting point by entry.

Worked cases, melting point given:
[
  {
    "molecule": "CC(=O)N1CCN(Cc2ccc(N/C(=C3\\C(=O)Nc4ccc([N+](=O)[O-])cc43)c3ccccc3)cc2)CC1 [Example 246]",
    "result": "275 to 277 °C"
  },
  {
    "molecule": "CN(C(=O)CN1CCCC1)c1ccc(N/C(=C2\\C(=O)Nc3ccc([N+](=O)[O-])cc32)c2ccccc2)cc1 [Example 364]",
    "result": "246 to 247 °C"
  },
  {
    "molecule": "O=C1Nc2ccc([N+](=O)[O-])cc2/C1=C(/Nc1ccc(CN2CCC(C(=O)O)CC2)cc1)c1ccccc1 [Example 177]",
    "result": "207 °C"
  },
  {
    "molecule": "O=C1Nc2ccc([N+](=O)[O-])cc2/C1=C(/Nc1cccc(CN2CCCCC2)c1)c1ccccc1 [Example 108]",
    "result": "214 to 215 °C"
  },
  {
    "molecule": "CCN(CC)CC(=O)Nc1ccc(N/C(=C2\\C(=O)Nc3ccccc32)c2ccccc2)cc1.Cl",
    "result": "267 to 269 °C"
  },
  {
    "molecule": "CCC(=O)N(CCN1CCOCC1)c1ccc(N/C(=C2\\C(=O)Nc3ccccc32)c2ccccc2)cc1 [Example 349]",
    "result": "228 °C"
  },
  {
    "molecule": "O=C(O)CN(C(=O)c1ccccc1)c1ccc(N/C(=C2\\C(=O)Nc3ccccc32)c2ccccc2)cc1 [Example 361]",
    "result": "277 °C (dec.)"
  },
  {
    "molecule": "CN(C(=O)CNCCN1CCOCC1)c1ccc(N/C(=C2\\C(=O)Nc3ccccc32)c2ccccc2)cc1 [Example 373]",
    "result": "117 to 119 °C"
  },
  {
    "molecule": "CN(C)C(=O)COc1ccc(N/C(=C2\\C(=O)Nc3ccccc32)c2ccccc2)cc1 [Example 291]",
    "result": "224 to 226 °C"
  },
  {
    "molecule": "O=C1Nc2ccc([N+](=O)[O-])cc2/C1=C(/Nc1ccc(CN2CC=CCC2)cc1)c1ccccc1 [Example 270]",
    "result": "222 to 225 °C"
  }
]

Given the entry CN(Cc1ccccc1)Cc1ccc(N/C(=C2\C(=O)Nc3ccc([N+](=O)[O-])cc32)c2ccccc2)cc1 [Example 238] , report its measured melting point.
200 to 201 °C

Find the recorded melting point belonging to CN(C)CCN(C)S(=O)(=O)c1ccc(N/C(=C2\C(=O)Nc3ccc([N+](=O)[O-])cc32)c2ccccc2)cc1 [Example 402] and report it.
215 to 218 °C

If you can, please state the reported melting point value of CC(=O)NCc1ccc(/C(Nc2ccc(N(CCN(C)C)S(C)(=O)=O)cc2)=C2/C(=O)Nc3ccccc32)cc1 [Example 427] .
225 to 227 °C

Dear colleague, I am looking for the recorded melting point of the following molecule: CCN(CC)CC(=O)N(C)c1ccc(N/C(=C2\C(=O)Nc3ccccc32)c2ccccc2)cc1 [Example 49]
242 to 247 °C

Recorded melting point of CN1CCN(CCc2ccc(N/C(=C3\C(=O)Nc4ccc([N+](=O)[O-])cc43)c3ccccc3)cc2)CC1 [Example 135] , please.
238 to 240 °C

Where these numbers come from: patent US6855710B2
